# assayedSystem: UniProt P47898
# Sequence (P47898 whole entry): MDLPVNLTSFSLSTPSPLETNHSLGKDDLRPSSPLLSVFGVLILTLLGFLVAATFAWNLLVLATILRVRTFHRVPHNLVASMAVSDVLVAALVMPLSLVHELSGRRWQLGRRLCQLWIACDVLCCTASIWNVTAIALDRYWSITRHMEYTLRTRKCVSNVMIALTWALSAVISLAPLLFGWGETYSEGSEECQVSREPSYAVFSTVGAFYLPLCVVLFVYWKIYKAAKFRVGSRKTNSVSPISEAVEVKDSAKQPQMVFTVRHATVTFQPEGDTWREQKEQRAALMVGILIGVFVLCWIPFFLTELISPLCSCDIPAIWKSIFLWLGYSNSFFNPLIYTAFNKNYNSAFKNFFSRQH
I'd be grateful if you could share measured Ki for these entries.

I am curious: what Ki value has been reported for Cc1[nH]c2ccc(NC(=O)c3ccc(F)cc3)cc2c1CCN(C)C ?
> 260 nM

I am curious: what Ki value has been reported for CC(=O)Nc1ccc2[nH]cc(C3CCN(C)CC3)c2n1 ?
> 240 nM

I am curious: what Ki value has been reported for CCC(=O)Nc1ccc2[nH]cc(C3CCN(C)CC3)c2n1 ?
> 300 nM

I am curious: what Ki value has been reported for CN1CCC(C(=O)c2cccc(NC(=O)c3c(F)cc(F)cc3F)n2)CC1 ?
> 595 nM

----------
# assayedSystem: 5-hydroxytryptamine receptor 2A (Homo sapiens, UniProt P28223)
# Sequence (P28223 whole entry): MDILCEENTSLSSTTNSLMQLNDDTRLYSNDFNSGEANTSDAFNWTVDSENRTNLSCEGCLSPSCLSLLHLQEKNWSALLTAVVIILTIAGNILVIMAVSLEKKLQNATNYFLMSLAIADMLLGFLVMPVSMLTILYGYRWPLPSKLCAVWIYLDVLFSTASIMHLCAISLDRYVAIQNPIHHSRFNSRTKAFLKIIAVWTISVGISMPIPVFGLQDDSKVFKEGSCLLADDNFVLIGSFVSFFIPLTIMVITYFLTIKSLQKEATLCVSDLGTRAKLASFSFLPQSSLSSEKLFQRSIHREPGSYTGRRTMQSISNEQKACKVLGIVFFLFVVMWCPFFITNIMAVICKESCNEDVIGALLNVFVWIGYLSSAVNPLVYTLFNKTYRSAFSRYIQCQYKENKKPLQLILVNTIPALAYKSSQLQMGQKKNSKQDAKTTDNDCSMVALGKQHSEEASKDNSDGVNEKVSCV
# assaySummary: Inverse agonist activity at human 5-HT2A receptor incubated for 3 hrs by radioligand binding assay
# Assay type: functional
endpoint: Ki (nM)
Answer with a number only, understood to be in nM.

I am curious: what Ki value has been reported for COc1ccc(C(=O)N(Cc2ccc(C)cc2)C2CCN(C)CC2)cc1 ?
2.1

----------
I'd be grateful if you could share measured pKi for these entries.
When answering, recall that pKi equals minus log10 of the concentration in mol/L, and write that number alone.

Entry COc1c(Br)cc([18F])cc1CCNCc1cccc2c1OCO2 , system 5-hydroxytryptamine receptor 2A (Homo sapiens, UniProt P28223): what pKi was measured?
8.77

Entry COc1c(Br)cc([18F])cc1CCNCc1ccccc1O , system 5-hydroxytryptamine receptor 2A (Homo sapiens, UniProt P28223): what pKi was measured?
8.14

Entry COc1cc(Br)c(OC)c(CCNCc2cccc(F)c2)c1 , system 5-hydroxytryptamine receptor 2A (Homo sapiens, UniProt P28223): what pKi was measured?
8.57

Entry CCc1cc(OC)cc(CCNCc2cccc(F)c2)c1OC , system 5-hydroxytryptamine receptor 2A (Homo sapiens, UniProt P28223): what pKi was measured?
8.62

----------
# assayedSystem: 5-hydroxytryptamine receptor 6 (Homo sapiens)
# Sequence (P50406 whole entry): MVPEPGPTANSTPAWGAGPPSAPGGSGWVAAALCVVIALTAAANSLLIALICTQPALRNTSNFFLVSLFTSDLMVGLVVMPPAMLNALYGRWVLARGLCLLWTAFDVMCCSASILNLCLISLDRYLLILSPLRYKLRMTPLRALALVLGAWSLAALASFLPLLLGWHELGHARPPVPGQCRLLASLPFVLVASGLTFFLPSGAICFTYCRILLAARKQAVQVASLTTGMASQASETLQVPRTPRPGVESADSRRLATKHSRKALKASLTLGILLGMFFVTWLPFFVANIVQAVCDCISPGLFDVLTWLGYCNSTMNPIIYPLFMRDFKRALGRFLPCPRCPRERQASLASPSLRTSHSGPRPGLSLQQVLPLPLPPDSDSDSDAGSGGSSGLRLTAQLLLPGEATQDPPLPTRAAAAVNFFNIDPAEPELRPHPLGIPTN
# assaySummary: Binding affinity to 5-HT6 receptor (unknown origin) assessed as inhibition constant
endpoint: pKi
When answering, recall that pKi equals minus log10 of the concentration in mol/L, and write that number alone.

I am curious: what pKi value has been reported for CN(C)CCOc1cccc2c1ccn2S(=O)(=O)c1ccc([18F])cc1 ?
8.40

----------
# assayedSystem: 5-hydroxytryptamine receptor 1D (Homo sapiens)
# Sequence (P28221 whole entry): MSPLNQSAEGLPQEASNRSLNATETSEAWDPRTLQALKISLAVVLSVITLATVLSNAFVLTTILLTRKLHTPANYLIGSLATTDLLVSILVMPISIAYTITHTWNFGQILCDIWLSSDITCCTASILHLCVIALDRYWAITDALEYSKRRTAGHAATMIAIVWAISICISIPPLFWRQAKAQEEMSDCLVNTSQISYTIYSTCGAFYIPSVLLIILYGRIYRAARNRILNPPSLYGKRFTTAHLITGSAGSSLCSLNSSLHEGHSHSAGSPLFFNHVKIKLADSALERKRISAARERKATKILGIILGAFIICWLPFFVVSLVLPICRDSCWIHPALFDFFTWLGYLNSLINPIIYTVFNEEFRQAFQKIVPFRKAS
# assaySummary: Binding affinity to human 5-HT1D expressed in CHO cells assessed as inhibition constant incubated for 1 hr by Cheng-Prusoff equation analysis
# Format: cell-based
endpoint: pKi
When answering, recall that pKi equals minus log10 of the concentration in mol/L, and write that number alone.

Entry CNC(=O)c1ccc2c(c1)CCO[C@H]2CCN1CCN(c2ccc(C(N)=O)cc2)CC1 , system 5-hydroxytryptamine receptor 1D (Homo sapiens): what pKi was measured?
8.22

----------
# assayedSystem: UniProtKB P32305
# assaySummary: Binding affinity to rat brain 5-HT7 receptor assessed as inhibition constant incubated for 60 mins
# Type: tissue-based
endpoint: pKi
When answering, recall that pKi equals minus log10 of the concentration in mol/L, and write that number alone.

I am curious: what pKi value has been reported for CC1CCN(CC[C@H]2CCCN2S(=O)(=O)c2cccc(OCC[18F])c2)CC1 ?
9.12

----------
I'd be grateful if you could share measured Ki for these entries.
# assayedSystem: 5-hydroxytryptamine receptor 7 (Rattus norvegicus, UniProt P32305)
# Sequence (P32305 whole entry): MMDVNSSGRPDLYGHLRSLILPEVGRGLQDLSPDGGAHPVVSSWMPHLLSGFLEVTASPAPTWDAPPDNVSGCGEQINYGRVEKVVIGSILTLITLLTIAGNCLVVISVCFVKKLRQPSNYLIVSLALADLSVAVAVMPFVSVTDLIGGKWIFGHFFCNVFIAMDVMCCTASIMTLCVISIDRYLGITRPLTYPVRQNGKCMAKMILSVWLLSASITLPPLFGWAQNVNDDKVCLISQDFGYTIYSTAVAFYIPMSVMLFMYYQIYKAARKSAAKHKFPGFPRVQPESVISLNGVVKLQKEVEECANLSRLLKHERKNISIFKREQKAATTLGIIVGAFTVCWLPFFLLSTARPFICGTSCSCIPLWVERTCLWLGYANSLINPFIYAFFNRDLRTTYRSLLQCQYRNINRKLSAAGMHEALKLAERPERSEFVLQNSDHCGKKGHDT
# assaySummary: Binding affinity to rat 5-HT7 receptor assessed as inhibition constant
Answer with a number only, understood to be in nM.

I am curious: what Ki value has been reported for CC1(CCCCN2CCN(c3cccc(OCCF)c3)CC2)C(=O)Nc2ccccc21 (configuration not stated) ?
5.6

I am curious: what Ki value has been reported for CCC1(CCCCN2CCN(c3cccc(OCCF)c3)CC2)C(=O)Nc2ccccc21 (configuration not stated) ?
13

----------
# assayedSystem: 5-hydroxytryptamine receptor 1A (Homo sapiens, UniProt P08908)
# Sequence (P08908 whole entry): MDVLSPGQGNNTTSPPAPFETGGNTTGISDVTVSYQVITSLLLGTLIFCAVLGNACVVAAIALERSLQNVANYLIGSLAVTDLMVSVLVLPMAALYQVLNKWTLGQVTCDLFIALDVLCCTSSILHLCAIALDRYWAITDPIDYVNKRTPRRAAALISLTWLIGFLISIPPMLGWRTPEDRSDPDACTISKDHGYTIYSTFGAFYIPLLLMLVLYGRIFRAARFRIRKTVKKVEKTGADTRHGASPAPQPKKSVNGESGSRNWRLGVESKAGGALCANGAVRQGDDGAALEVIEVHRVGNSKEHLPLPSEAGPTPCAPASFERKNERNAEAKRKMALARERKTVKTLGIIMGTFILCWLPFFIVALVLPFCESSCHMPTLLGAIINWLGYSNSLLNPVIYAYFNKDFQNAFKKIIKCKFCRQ
# assaySummary: Displacement of [3H]-8-OH-DPAT from 5HT1A receptor (unknown origin)
endpoint: Ki (nM)
Answer with a number only, understood to be in nM.

I am curious: what Ki value has been reported for CSc1cccc(C(=O)NC[C@@H]2CCCN2CCc2ccccc2)c1 ?
4.3

----------
# assaySummary: Drug metabolism in plasma (unknown origin) assessed as parent compound remaining measured at 55 mins relative to control
# Format: ADME
# assaySetup: read-out: Stability
endpoint: remaining at 55 min (%)
Answer with a number only, understood to be in %.

I am curious: what remaining at 55 min value has been reported for COc1ccccc1N1CCN(CCN(C(=O)C2CCCCC2)c2cccc([18F])n2)CC1 ?
20

----------
# assayedSystem: UniProt:P61169
# Sequence (P61169 whole entry): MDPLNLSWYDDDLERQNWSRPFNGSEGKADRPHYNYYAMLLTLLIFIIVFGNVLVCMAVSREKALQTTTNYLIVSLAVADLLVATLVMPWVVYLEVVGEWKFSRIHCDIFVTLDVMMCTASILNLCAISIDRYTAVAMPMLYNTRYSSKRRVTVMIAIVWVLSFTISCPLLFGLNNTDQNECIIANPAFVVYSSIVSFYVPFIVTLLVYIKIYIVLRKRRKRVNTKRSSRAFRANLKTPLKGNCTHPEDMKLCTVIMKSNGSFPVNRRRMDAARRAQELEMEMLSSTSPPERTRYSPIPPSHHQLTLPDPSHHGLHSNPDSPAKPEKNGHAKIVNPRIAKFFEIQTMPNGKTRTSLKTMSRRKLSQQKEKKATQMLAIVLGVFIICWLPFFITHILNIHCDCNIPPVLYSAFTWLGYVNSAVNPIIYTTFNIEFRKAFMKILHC
# assaySummary: Displacement of [3H]-spiperone from rat frontal cortex membrane homogenate D2 receptor
# Type: cell membranes
endpoint: pKi
When answering, recall that pKi equals minus log10 of the concentration in mol/L, and write that number alone.

I am curious: what pKi value has been reported for CCN(CC)C(=O)[C@@H]1C=C2c3cccc4c3c(c(Br)n4C)CC2N(C)C1 (stereo partly specified) ?
8.41

----------
# assayedSystem: 5-hydroxytryptamine receptor 7 (Homo sapiens)
# Sequence (P34969 whole entry): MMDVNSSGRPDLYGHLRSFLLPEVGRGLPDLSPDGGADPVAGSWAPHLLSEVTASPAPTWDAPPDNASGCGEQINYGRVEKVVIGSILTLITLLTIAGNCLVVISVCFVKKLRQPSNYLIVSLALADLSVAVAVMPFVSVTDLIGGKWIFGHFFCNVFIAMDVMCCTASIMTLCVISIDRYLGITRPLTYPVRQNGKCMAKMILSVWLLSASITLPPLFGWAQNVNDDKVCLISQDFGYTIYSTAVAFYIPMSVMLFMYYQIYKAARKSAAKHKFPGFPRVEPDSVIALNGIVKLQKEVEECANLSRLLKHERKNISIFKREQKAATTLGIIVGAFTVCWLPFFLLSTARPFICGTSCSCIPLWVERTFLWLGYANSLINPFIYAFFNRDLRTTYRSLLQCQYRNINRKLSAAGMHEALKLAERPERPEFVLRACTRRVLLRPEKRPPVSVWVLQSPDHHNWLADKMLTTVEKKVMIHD
# assaySummary: Binding affinity to human recombinant 5-HT7 receptor expressed in CHO cells assessed as inhibition constant
# Format: cell-based
I'd be grateful if you could share measured Ki for these entries.
Answer with a number only, understood to be in nM.

I am curious: what Ki value has been reported for COc1ccccc1N1CCN(CCC[C@H]2CCCN2S(=O)(=O)c2ccccc2F)CC1 ?
1.9

I am curious: what Ki value has been reported for O=S(=O)(c1ccc(F)cc1)N1CCC[C@@H]1CCCN1CCN(c2ccc(Cl)cc2)CC1 ?
0.32

I am curious: what Ki value has been reported for CC1CCN(CCC[C@H]2CCCN2S(=O)(=O)c2ccc(F)cc2)CC1 ?
16
